tested on: HSV-1 Strain F in Vero or MRC5 cells; test: Viral qPCR assay HSV-1 (V0/V1, V2/V3), EC50; type: cell-based; conditions: Human alphaherpesvirus 1, Vero, VERO cells, 10%; read-out: HSV1 Cell (EC50) VERO 10%
observation-type: pEC50
Just the number, please; pEC50 means minus log10 of the concentration in mol/L.

Sure, the documented pEC50 for N#Cc1cnc(C(=O)NCc2ccc(Cl)cc2)cc1O[C@H]1CCN2C(=O)OC[C@@H]2C1 is 6.63

Lab note: CC(=O)N1CCC(Oc2cc(C(=O)NCc3ccc(Cl)cc3)ncc2-c2cnn(CCO)c2)CC1 gave pEC50 of 5.31

For record O=C(NCc1ccc(Cl)cc1)c1cc(O[C@H]2CCN3C(=O)OC[C@@H]3C2)c(CN2CCCC(O)C2)cn1 (mixture of isomers) the listed pEC50 is 5.36
